# System: JEG-3
# method: Primary qHTS to identify gynecologic anti-cancer compounds using libraries of approved drugs and bioactive compounds (AID 1345084); note: nearly all actives have a fitted effect of over 55% in size
# condition_context: Gynecologic cancer cell panel viability, ATPlite luminescence, 48 h; series mostly up to 57.5 µM
# Text: National Center for Advancing Translational Sciences [NCATS] Assay Overview: Chemotherapeutic drug responses vary from cancer to cancer and from patient to patient. […] ATPlite is a luminescence based assay reliant on the conversion of a luciferase substrate to light in the presence of ATP. As a cytotoxic compound will suppress growth and decrease the number of cells, the concentration of ATP will decrease, and less light signal will be detected in the well. […]
Inconclusive results are not listed. Active and inactive are the calls of the source. Calls come from the whole dose curve; as a rule, active = well fitted cell-killing curve with a large enough effect; inconclusive = small, poorly fitted or top-dose-only effect, or effect the other way; inactive = flat fitted curve, though single readings scatter.
Your response should consist of one outcome taken from active, inactive

Some solved cases for reference:
[[record]]
molecule = "CCCCCCCCCC(=O)N[C@@H](Cc1c[nH]c2ccccc12)C(=O)N[C@H](CC(N)=O)C(=O)N[C@@H](CC(=O)O)C(=O)N[C@@H]1C(=O)NCC(=O)N[C@@H](CCCN)C(=O)N[C@@H](CC(=O)O)C(=O)N[C@H](C)C(=O)N[C@@H](CC(=O)O)C(=O)NCC(=O)N[C@H](CO)C(=O)N[C@@H]([C@@H](C)CC(=O)O)C(=O)N[C@@H](CC(=O)c2ccccc2N)C(=O)O[C@@H]1C"
assigned_class = "inactive"

[[record]]
molecule = "CC(C)CC(=O)Nc1n[nH]c2c1CN(C(=O)C1CCN(C)CC1)C2(C)C"
assigned_class = "inactive"

[[record]]
molecule = "O=C(c1ccc(Nc2nccc(-c3cc4ccccc4s3)n2)cc1)N1CCC(N2CCCC2)CC1"
assigned_class = "inactive"

[[record]]
molecule = "O=C1CCC[C@@H]2[C@H]3CCC[N+]4([O-])CCC[C@@H](CN12)[C@@H]34 (some centres not stated)"
assigned_class = "inactive"


Called result for Clc1ccc2ncc(-c3cccc(NC4CNC4)n3)n2c1 inactive

Name the outcome recorded for C#Cc1cccc(Nc2ncnc3cc(OC)c(OCCCCCCC(=O)NO)cc23)c1 in the assay. active

Recorded call for CNC(=O)c1ccc(N2C(=S)N(c3cnc(C#N)c(C(F)(F)F)c3)C(=O)C23CCC3)cc1F ? inactive

Assay result, entry CN1CCC(CNc2ccc3ncc(-c4cccc(OC(F)(F)F)c4)n3n2)CC1 — outcome? inactive

Recorded call for Cn1cc(-c2[nH]c3cc(NC(=O)[C@H](N)C4CCCCC4)cc4c3c2C=NNC4=O)cn1 ? inactive

Look up the recorded call for COc1cc2nccc(Oc3ccc(NC(=O)C4(C(=O)Nc5ccc(F)cc5)CC4)cc3)c2cc1OC in this test. active

What is the recorded call for this molecule in the test? Cc1ccc(C(N)=O)cc1Nc1nccc(-c2cn(C(C)C)c3cnccc23)n1 inactive

// param item: COc1cc(C)c(Sc2cnc(NC(=O)c3ccc(CNC(C)C(C)C)cc3)s2)cc1C(=O)N1CCN(C(C)=O)CC1 (configuration not stated) ; yields the recorded call inactive
